experiment: yeast display, Sf9 membrane polyspecificity reagent, FACS + sequencing; frameworks hold sequencing errors
endpoint: polyreactivity (PSR sort gate)

Below: 6 sequences and their reported polyreactivity (PSR sort gate).
polymer sequence: QVQLVESVGCLVQAGGSLRLICAASGSIFVDYAMGWYRQAPGKERELVAAISSGGGSTYYADSVKGRFTISRDNSKYTVYLQMNSLKPEDTAVYYCATDLQPRSFLYWYNYWGQGTQVTVSS
reported measurement: low polyreactivity

polymer sequence: QVQLVESGGGLVQAGGSLRLSCAASGRTFFRYAMGWYRQAPGKERELVASISGGITNYADSVKGRFTISRDNAQNTVYLQMNSLKPEDTAVYYCAADDYPYSYSSQFQYTGYEYWGQGTQVTVSS
reported measurement: low polyreactivity

polymer sequence: QVQLVESGGGLVQAGGSLRLSCAASGSTFDIYAMGWYRQAPGNERELVAAISVSGGSTYYADSVKGRFTIARDNAKNTVDLQMNSLKPEDTAVYYCAAEAYTRFYQQFDYWGQGTQVTVSS
reported measurement: high polyreactivity

polymer sequence: QVQLVESGGGLVQAGGSLRLSCAATGSIFNKYAMGWYRQAPGTEREFVAAITQGGGRTYYADSVKGRFTISRDNAKNTVYLQMNSLKPEDTAVYYCAKPAYHSPDYDYWGQGTQVTVSS
reported measurement: high polyreactivity

polymer sequence: QVQLVESGGGLVQAGGRLRLSCAASGSTFGYYAMGWNRQAPGKERELVAAISSRDGSTFYADSVKGRFTISRDNAKNTVFLQMNSLKPDDTAVYYCAKVFFHTPIVPEYDYCGQGTQVTVSS
reported measurement: low polyreactivity

polymer sequence: QLQHVDSGGGLVQAGGSLRLSCATSGIIFYDYDIGWSRQAPEKESELVARISRNGGRTYYADSVKGRFTISRDNAKNTVYLQMNSLNPEDTAVYYCNGVYFVTTSPGSDYWGQGTQVTVSS
reported measurement: high polyreactivity

**Query** Fill blank: measured polyreactivity (PSR sort gate) of the sequence QVQLVESGGGLVQAGGSLRLSCAASGRTFATNARGWYRQAPGKERELVAGINGSGSTNYADSVKGRFTISRDNAKNTVYLQMNSLKPEDTAVYYCAAYVGLYYRLHYYYWGQGTQVTVSS is ____.
**Result** low polyreactivity

**Query** Could you do the same for QVQLVESGGGLVQAGGSLRLSCAASGRTFTFYTMGWYRQAPGKERELVAAITSGGSTYYADSVKGRFTISRDNAKNTVYLQMNSLKPEDTAVYYCAAKYYYTYYYWGQGTQVTVSS , please?
**Result** high polyreactivity

---

assay: yeast display, Sf9 membrane polyspecificity reagent, FACS + sequencing; frameworks hold sequencing errors
endpoint: polyreactivity (PSR sort gate)

Below: 6 sequences and their reported polyreactivity (PSR sort gate).
polymer sequence: QVQLVESGGGLVQAGGSLRLSCAASGRIFGVYGMGWYRQAPGKERELVAAISWSGATTYYADSVKGRFTISRDNAKNTVYLQMNSLKPEDTEVYYCAADFGWFYDGLAVWFIRILGVYWGQGTQVTVSS
polyreactivity (PSR sort gate): low polyreactivity
--
polymer sequence: QVQLVESGGGLVQAGGSLRLSCAASGRIFNAYAMGWYRQAPGKERELVATISWRTGSTYYADSVKGRFTISRDNAKNTVYLQINSLKPEDTAVYYCNAKVGSYGAQGYRFAYNYWGQGTQVTVSS
polyreactivity (PSR sort gate): high polyreactivity
--
polymer sequence: QVQLVESGGGLVQAGGSLRLSCAASGRIFTYNAMGWYRQAPGKERELVAVISRRGGSTYYADSVKGRFTSSRDNAKNPVYLQMNSLTPEDSAVYYCAADLPSYPYEYWGQGPQVTVSS
polyreactivity (PSR sort gate): low polyreactivity
--
polymer sequence: QVQLVESGGGLVQAGGSLRLSCAASGNIFYKYDMGWYRQAPGKERELVATISSDANTKYADSLKGRFTISRDNAKNTVYLQMNSLKPEDTPVYYCNVKDPVVRGALRDPTEYDSWGQGTQVTVSS
polyreactivity (PSR sort gate): low polyreactivity
--
polymer sequence: QLQLVESGGGLVQAGGSLRLSCAASGSIFDGNAMGWYRQAPGKERELVAAITNSGGSTYYADSVKGRFTISRDNAKNTVYLQMNSLKPEDTAVYYCNALPFAWRRYRWVRTMYYWGQGTQVTVSS
polyreactivity (PSR sort gate): low polyreactivity
--
polymer sequence: QVQLVESGGGLVQAGGSLRLSCAASGIIFSYYAMGCYRQAPGKERELVAAISWSGGSTYYADSVKGRFTISRDNAKNTVYLQMNSLKPEDTAVYYCAADDYLAYVYWGQGTQVTVSS
polyreactivity (PSR sort gate): high polyreactivity

**Query** Fill blank: measured polyreactivity (PSR sort gate) of the sequence QVQLVESGGGLVQAGGSLRLSCAASGFTFSTNAMGWYRQAPGKERELVAAISKSGVSTYYADSVKGRFTISRDNAKNTVYLQMNSLKPEDTAVYYCAADPKIALYKVWRYDYWGQGTQVTVSS is ____.
**Result** high polyreactivity

**Query** Could you do the same for QVQLVESGGGIVQAGCSLRLSCAASGRIFGYYSMGWYRQAPGKDTELVAAISNGGSTHYADSVKGRFTISRDNAKNTVYLHMNSLKPEDSAVYYCAARWHYGYYAYYYWGQGTQVTVSS , please?
**Result** high polyreactivity

**Query** Could you do the same for HVQLVESGGGLVQAGGSLRLSCAASGRTFYRYAKGWYRQAPGKEREFVAAISRSGGSTYYAVSVKGRFTISRDNAKNTVYLQMNSLKPEDTAVFYSNKYYWYPYGRAHDYGYWGQGTQVTVSS , please?
**Result** high polyreactivity

**Query** Could you do the same for QVQLVESGGGLVQAGGSLRLSCAASGSTFFHYAMGWYRQAPGKERELVAAIDSNGGSTYYADSVKGRFTISRDNAKNTVYLQMNSLKPEVTAVYYCAADDLAEFEYDYWGLGTQVTVSS , please?
**Result** low polyreactivity

**Query** Could you do the same for QVQLVESGGGLVQAGGSLRLSCAASGSIFTPNVMGWYRQAPGKERELVAAISQSGGSTFYADSVKGRFTISRDNAKNTVYLQMNSLKPEDTAVYYCATEYYGPVYDLDYDYWGQGTQVNVSS , please?
**Result** low polyreactivity

---

assay: yeast display, Sf9 membrane polyspecificity reagent, FACS + sequencing; frameworks hold sequencing errors
endpoint: polyreactivity (PSR sort gate)

Below: 6 sequences and their reported polyreactivity (PSR sort gate).
polymer sequence: QVQLVESGGGLVQAGGSLRLSSAASGSIFRSNAMGWYRQAPGKERELVAAIDYSGTSTTYADSVKGRFTISRDNAKNTVYLQMNRLKPEDTAVYYCNADGYYRGYWSGYEYWGQGTQVTVSS
polyreactivity (PSR sort gate): low polyreactivity
--
polymer sequence: QVQLVESGGGLVQAGGSLRLSCAASGSIFWYYAMGWYRQAPGKERELVAAISGSGTRTYYADSVKGRFTISRDNAKNTVYLQMNSLKPEDTAVYYCAATAVRQSGRYLSSSGYDYWGQGTQVTVSS
polyreactivity (PSR sort gate): high polyreactivity
--
polymer sequence: QVQLVESGGGLVQAGGSLRLSCAASGYNFIVYTMGWYRQAPGKERELVAAISSGGITDYADSVKGRFTISRDNAKNTVYLQMNSLKPEDTAVYYWGQGTQVTVSS
polyreactivity (PSR sort gate): low polyreactivity
--
polymer sequence: QDQLVESGGGLVQAGGSLRLSCAASGSIFLIYAMGGYRQAPGKERELVAAITWGGGSTYYADSVKGRFTISRDNAKNTVYLQMTSLKPVDTAVYYCAAYSYSSSFGYRYDYWGQGTQVTVSS
polyreactivity (PSR sort gate): high polyreactivity
--
polymer sequence: QVHLQESGGVQAGGSLPQSCAASGNISRSDVMGWYRQAPPKERELVATINNGTITYYADSVKGRFTISRDHAKNTVYLHMNSLKQEDTAVQYCAVVQSDTDSLYYWGQGTQVTVSS
polyreactivity (PSR sort gate): low polyreactivity
--
polymer sequence: QVQLVESGGGLVQAGGSLRLSCAASGYIFGYYVMGWYRQAPGKERELVAAITGRGGSTYYADSVKGRFTISRDNAKNTVYLQMNSLKPEDTAVYYCAADATTYPYDPWHLYEIWEYYYWGQGTQVTVSS
polyreactivity (PSR sort gate): low polyreactivity

**Query** Fill blank: measured polyreactivity (PSR sort gate) of the sequence QVQLVDSGGALVQAGGSLRLSCAASGSTFVVNAIGWYRQAPGKERELVAAIAGGGSTNYADSVKGRFTISRDNAKNTVYLQMNSLKPEDTAVYYCAVDGVEFSSYGYWGQGTQVTVSS is ____.
**Result** low polyreactivity

**Query** Could you do the same for QVQLVESGGGLVQAGGSLRLSCAASGRTFSTNAMGLYRQAPGKEREFVAAITGSGGSTYYADSVKGRFTISRDNAKNTVYLQINSLKPEDTAVYYCAKRSAWHTYRYGYWGQGTQVTVSS , please?
**Result** high polyreactivity

**Query** Could you do the same for QVQLVESGGGLVQAGGSLRLSCAASGSTFWYYAMGWYRQAPGKEWEFVAAIKWSGGRTDYADSVKGRFTISRDIAKNTVYLQMNSLKAEDTAVYYFAADYSFRSFPIDANVLGYEYWGQGTQVTVSS , please?
**Result** high polyreactivity
